- study target: HtpG (Escherichia coli)
- Sequence (P0A6Z3 whole entry): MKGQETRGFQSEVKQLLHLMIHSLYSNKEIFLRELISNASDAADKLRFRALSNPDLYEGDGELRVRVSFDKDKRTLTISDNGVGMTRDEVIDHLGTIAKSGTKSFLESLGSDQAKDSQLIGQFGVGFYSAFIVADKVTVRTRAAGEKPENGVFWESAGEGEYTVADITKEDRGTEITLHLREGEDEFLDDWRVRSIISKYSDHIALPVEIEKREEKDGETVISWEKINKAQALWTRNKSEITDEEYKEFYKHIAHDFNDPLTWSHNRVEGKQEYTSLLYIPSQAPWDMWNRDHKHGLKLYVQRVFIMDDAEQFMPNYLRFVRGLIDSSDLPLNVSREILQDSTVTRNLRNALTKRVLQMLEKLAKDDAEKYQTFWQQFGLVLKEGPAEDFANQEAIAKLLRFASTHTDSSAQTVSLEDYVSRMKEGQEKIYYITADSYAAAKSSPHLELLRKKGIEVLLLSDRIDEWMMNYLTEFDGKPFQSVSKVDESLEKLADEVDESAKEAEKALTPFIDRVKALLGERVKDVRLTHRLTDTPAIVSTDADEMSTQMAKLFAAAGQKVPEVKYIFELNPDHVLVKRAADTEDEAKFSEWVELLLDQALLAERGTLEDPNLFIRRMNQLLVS
reported metric: Kd

I have this compound here, "Nc1ncnc2c1ncn2[C@@H]1O[C@H](COP(=O)(O)OP(=O)(O)NP(=O)(O)O)[C@@H](O)[C@H]1O" , and I need its recorded Kd.
12 to 15 µM
